Reference source for all entries: patent US10662146B2

assay: Single dose intravenous PK study in male Sprague Dawley rats (plasma by LC-MS/MS); assay type: in vivo; settings: male, Sprague-Dawley, rat, plasma, iv, 2 mg/kg, PRX-P5-011 IV 2 mg/kg b.w., 1.00 h, mean
Metric Name: concentration at 1 h
Please report the result as a number followed by the unit.

Task: Tell me its concentration at 1 h given CCCCCCCCCCCCCCCCCC(=O)OC(C)OC(=O)N(CC)C1C2CCC(C2)C1c1ccccc1 (single isomer, unassigned) as the entry.
Result: 0 ng/mL

* * *

test: Single dose intravenous PK study in male Sprague Dawley rats (plasma by LC-MS/MS); format: in vivo; details: male, Sprague Dawley, rat, plasma, iv, 2 mg/kg, PRX-002 (−) Isomer IV 2 mg/kg, mean; read-out: MRTlast of PRX-002 (−) Isomer
Metric Name: MRT last (h)
Enter your answer as a number in h; do not include the unit.

Task: Tell me its MRT last given CCN[C@@H]1[C@@H]2CC[C@@H](C2)[C@H]1c1ccccc1 [PRX-002 (−) Isomer, reference compound] as the entry.
Result: 1.33

* * *

assay: Single dose oral PK study in male Sprague Dawley rats (plasma by LC-MS/MS); format: in vivo; conditions: male, Sprague-Dawley, rat, in vivo; PRX-P6-011 oral 5 mg/kg, mean; read-out: Tmax of PRX-P6-011
Metric Name: Tmax (min)
Enter your answer as a number in min; do not include the unit.

Task: Tell me its Tmax given CCN(C(=O)[C@@H](NC(=O)[C@@H](N)C(C)C)C(C)C)C1C2CCC(C2)C1c1ccccc1 (single isomer, unassigned) as the entry.
Result: 8.22

* * *

Assay: Single dose oral PK study in male Sprague Dawley rats (plasma by LC-MS/MS)
Assay type: in vivo
Conditions: male, Sprague Dawley, rat, in vivo; PRX-P6-011 oral 5 mg/kg b.w., 0.00 h, mean; read-out: Plasma concentrations of PRX-P6-011
Method: We describe here PK results of prodrugs of PRX-002 (−) or (+) isomers. All doses of prodrugs were administered such that they were equivalent to 5 mg/kg of PRX-002 (−) or (+) for oral studies and 2 mg/kg PRX-002 (−) or (+) for intravenous studies in male Sprague-Dawley (MSD) rats. Higher doses of up to 10 or 15 mg/kg [again equivalent to PRX-002 (−)] were used in some studies (as specified)]. Formulation preparation, dose administration and time of sample collection was as follows. […]
Metric Name: concentration at 0 h

Task: Tell me its concentration at 0 h given CCN(C(=O)[C@@H](NC(=O)[C@@H](N)C(C)C)C(C)C)C1C2CCC(C2)C1c1ccccc1 (single isomer, unassigned) as the entry.
Result: 0 ng/mL

* * *

test: Single dose intravenous PK study in male Sprague Dawley rats (plasma by LC-MS/MS); format: in vivo; settings: male, Sprague Dawley, rat; IV 2 mg/kg [equivalent to PRX-002 (−)], analyte: prodrug in plasma, mean; read-out: IV PK Parameters Tmax, Prodrug
Metric Name: Tmax (min)
Enter your answer as a number in min; do not include the unit.

Task: Tell me its Tmax given CCCCCCCCCCCCCCCCCC(=O)OCOC(=O)N(CC)C1C2CCC(C2)C1c1ccccc1 (single isomer, unassigned) as the entry.
Result: 4.8

Task: Tell me its Tmax given CCCCCCCCCC(=O)OCOC(=O)N(CC)C1C2CCC(C2)C1c1ccccc1 (single isomer, unassigned) as the entry.
Result: 0

Task: Tell me its Tmax given CCCCCCCCCCCCCCCCCC(=O)OC(C)OC(=O)N(CC)C1C2CCC(C2)C1c1ccccc1 (single isomer, unassigned) as the entry.
Result: 4.8

Task: Tell me its Tmax given CCCCCCCCCC(=O)OC(C)OC(=O)N(CC)C1C2CCC(C2)C1c1ccccc1 (single isomer, unassigned) as the entry.
Result: 0

* * *

assay: Single dose oral PK study in male Sprague Dawley rats (plasma by LC-MS/MS); type: in vivo; conditions: male, Sprague Dawley, rat, in vivo; PRX-P6-011 oral 5 mg/kg b.w., 6.00 h, mean; read-out: Plasma concentrations of PRX-P6-011
Metric Name: concentration at 6 h (ng/mL)
Enter your answer as a number in ng/mL; do not include the unit.

Task: Tell me its concentration at 6 h given CCN(C(=O)[C@@H](NC(=O)[C@@H](N)C(C)C)C(C)C)C1C2CCC(C2)C1c1ccccc1 (single isomer, unassigned) [PRX-P6-011] as the entry.
Result: 0

* * *

assay: Single dose oral PK study in male Sprague Dawley rats (plasma by LC-MS/MS); assay type: in vivo; settings: male, Sprague Dawley, rat, in vivo; oral 15 mg/kg (footnote *), analyte: prodrug in plasma, mean; read-out: Oral PK Parameters Tmax, Prodrug
Metric Name: Tmax (min)
Enter your answer as a number in min; do not include the unit.

Task: Tell me its Tmax given CCCCCCCCCCCCCCCCCC(=O)OC(C)OC(=O)N(CC)C1C2CCC(C2)C1c1ccccc1 (single isomer, unassigned) [PRX-P5-006] as the entry.
Result: 48

* * *

assay: Single dose oral PK study in male Sprague Dawley rats (plasma by LC-MS/MS); type: in vivo; conditions: male, Sprague-Dawley, rat, in vivo; PRX-P5-011 oral (5 mg/kg equivalent), 0.25 h, individual animals; read-out: Plasma concentration of PRX-P5-011
Metric Name: concentration at 0.25 h (ng/mL)
Enter your answer as a number in ng/mL; do not include the unit.

Task: Tell me its concentration at 0.25 h given CCCCCCCCCCCCCCCCCC(=O)OC(C)OC(=O)N(CC)C1C2CCC(C2)C1c1ccccc1 (single isomer, unassigned) as the entry.
Result: 0

* * *

assay: Single dose oral PK study in male Sprague Dawley rats (plasma by LC-MS/MS); assay type: in vivo; settings: male, Sprague Dawley, rat, in vivo; PRX-P6-011 oral 5 mg/kg b.w., 0.08 h, mean; read-out: Plasma concentrations of PRX-P6-011
Metric Name: concentration at 0.08 h (ng/mL)
Enter your answer as a number in ng/mL; do not include the unit.

Task: Tell me its concentration at 0.08 h given CCN(C(=O)[C@@H](NC(=O)[C@@H](N)C(C)C)C(C)C)C1C2CCC(C2)C1c1ccccc1 (single isomer, unassigned) as the entry.
Result: 75.9

* * *

assay: Single dose intravenous PK study in male Sprague Dawley rats (plasma by LC-MS/MS); type: in vivo; settings: male, Sprague-Dawley, rat, plasma, iv, 2 mg/kg, PRX-P5-006 IV 2 mg/kg b.w., individual animals; read-out: Cmax of PRX-P5-006
Metric Name: Cmax (ng/mL)
Enter your answer as a number in ng/mL; do not include the unit.

Task: Tell me its Cmax given CCCCCCCCCCCCCCCCCC(=O)OC(C)OC(=O)N(CC)C1C2CCC(C2)C1c1ccccc1 (single isomer, unassigned) as the entry.
Result: 11200

* * *

assay: Single dose oral PK study in male Sprague Dawley rats (plasma by LC-MS/MS); assay type: in vivo; conditions: male, Sprague-Dawley, rat, in vivo; PRX-P5-011 oral (5 mg/kg equivalent), 2.00 h, individual animals; read-out: Plasma concentration of PRX-P5-011
Metric Name: concentration at 2 h (ng/mL)
Enter your answer as a number in ng/mL; do not include the unit.

Task: Tell me its concentration at 2 h given CCCCCCCCCCCCCCCCCC(=O)OC(C)OC(=O)N(CC)C1C2CCC(C2)C1c1ccccc1 (single isomer, unassigned) as the entry.
Result: 0

* * *

assay: Single dose oral PK study in male Sprague Dawley rats (plasma by LC-MS/MS); type: in vivo; settings: male, Sprague Dawley, rat, in vivo, po, 5 mg/kg, single oral dose 5 mg/kg body weight, mean of N=3 (Table 39.24); read-out: AUClast
Metric Name: AUC(0-t) (ng·h/mL)
Enter your answer as a number in ng·h/mL; do not include the unit.

Task: Tell me its AUC(0-t) given CCN[C@H]1[C@H]2CC[C@H](C2)[C@@H]1c1ccccc1 [PRX-002 (+) Isomer, reference compound] as the entry.
Result: 128

* * *

assay: Single dose oral PK study in male Sprague Dawley rats (plasma by LC-MS/MS); assay type: in vivo; settings: male, Sprague-Dawley, rat, in vivo, po, 5 mg/kg, PRX-P6-011 oral 5 mg/kg, mean; read-out: AUClast of PRX-P6-011
Metric Name: AUC(0-t) (ng·h/mL)
Enter your answer as a number in ng·h/mL; do not include the unit.

Task: Tell me its AUC(0-t) given CCN(C(=O)[C@@H](NC(=O)[C@@H](N)C(C)C)C(C)C)C1C2CCC(C2)C1c1ccccc1 (single isomer, unassigned) [PRX-P6-011] as the entry.
Result: 44.2

* * *

experiment: Single dose intravenous PK study in male Sprague Dawley rats (plasma by LC-MS/MS); assay type: in vivo; settings: male, Sprague Dawley, rat, plasma, iv, 2 mg/kg, single IV dose 2 mg/kg b.w., mean plasma PK parameters (Table 39.27); read-out: AUCinf
Metric Name: AUC(0-inf) (ng·h/mL)
Enter your answer as a number in ng·h/mL; do not include the unit.

Task: Tell me its AUC(0-inf) given CCN[C@H]1[C@H]2CC[C@H](C2)[C@@H]1c1ccccc1 [PRX-002 (+) Isomer, reference compound] as the entry.
Result: 268
